// provenance: patent US20180140703A1

system: cell lines irrespective of HER2 expression; assay: Alamar Blue cell viability assay, cells based on HER2 expression; set-up: species or system human; settings: across cell lines, irrespective of HER2 expression; 72-96 h
pIC50: −log10 of the molar value.
Metric Name: pIC50

[
  {
    "Entry Smiles": "COc1cc2cc(c1Cl)N(C)C(=O)C[C@H](OC(=O)[C@H](C)N(C)C(=O)CCS)[C@]1(C)O[C@H]1[C@H](C)[C@@H]1C[C@@](O)(NC(=O)O1)[C@H](OC)/C=C/C=C(\\C)C2",
    "Metric Name": "pIC50",
    "Assay Value": 8.00
  }
]
